Data origin, for the record: the supplement of paper PMC6555819

PBM binding z-score reference
# System: RARg:RXRa (NR concentration 270 nM, RXRa partner concentration 90 nM)
# Assay method text: PBM binding z-score (relative to random genomic background probes); higher = stronger binding; sequences stand for … in GC…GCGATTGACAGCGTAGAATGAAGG

Input sequence | PBM binding z-score
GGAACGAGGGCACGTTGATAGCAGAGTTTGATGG | 1.53
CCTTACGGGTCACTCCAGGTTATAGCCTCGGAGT | 4.3
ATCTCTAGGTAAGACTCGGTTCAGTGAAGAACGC | 0.12
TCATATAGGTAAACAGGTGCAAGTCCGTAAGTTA | 0.453
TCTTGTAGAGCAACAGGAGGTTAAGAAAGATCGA | 0.269
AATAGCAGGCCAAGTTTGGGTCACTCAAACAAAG | 2.53
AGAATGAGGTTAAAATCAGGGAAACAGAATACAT | 1.94
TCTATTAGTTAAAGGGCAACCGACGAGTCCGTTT | 1.22
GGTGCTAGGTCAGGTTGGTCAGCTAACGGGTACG | 2.9
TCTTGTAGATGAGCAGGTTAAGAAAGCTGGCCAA | -0.327
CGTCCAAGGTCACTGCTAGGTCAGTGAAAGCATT | 7.45
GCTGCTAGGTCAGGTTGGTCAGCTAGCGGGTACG | 2.69
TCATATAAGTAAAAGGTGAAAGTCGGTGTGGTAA | 1.3
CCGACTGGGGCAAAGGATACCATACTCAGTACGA | 0.271
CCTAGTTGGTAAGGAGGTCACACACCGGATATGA | 3.75
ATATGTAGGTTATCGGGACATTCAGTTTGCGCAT | 0.79
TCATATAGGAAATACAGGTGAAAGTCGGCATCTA | 0.527
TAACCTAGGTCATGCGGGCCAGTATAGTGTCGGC | 4.53
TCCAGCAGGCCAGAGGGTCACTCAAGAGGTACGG | 2.61
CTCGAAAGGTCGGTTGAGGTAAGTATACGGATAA | 2.37
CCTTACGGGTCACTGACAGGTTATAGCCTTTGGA | 5.69
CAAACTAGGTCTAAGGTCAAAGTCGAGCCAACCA | 4.86
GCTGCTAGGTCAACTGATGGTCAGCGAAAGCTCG | 5.35
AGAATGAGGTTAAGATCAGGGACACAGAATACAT | 2.36
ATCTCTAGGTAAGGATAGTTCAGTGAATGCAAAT | 0.45
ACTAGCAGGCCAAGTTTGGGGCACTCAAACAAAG | 0.443
